Below, each of the compounds is paired with its reported Km value.
- Tested on: C11-GH1
- Construct: gene C11_GH1; Full ORF in pET28 (NdeI/XhoI), E. coli BL21(DE3), Ni-NTA; text says C-terminal His tag but reverse primer carries a stop codon; Primer-derived: N-term (M)VAFSDKFL (native GTG start), C-term SRNGKNL, nucleophile region LPLIITENGMADND
- TEST DESCRIPTION: fluorogenic hydrolysis, MU release
- Format: biochemical
- TEST SETTINGS: 20 mM HEPES, 300 mM NaCl, pH 7.0, 37°C; read-out: Mean Km (mM) ± SD
Report the figure in mM without appending any unit label.

Worked examples, 3 compounds total:
| COMPOUND | TESTED ON | UNIT ABBREV | Km |
| --- | --- | --- | --- |
| Cc1cc(=O)oc2cc(O[C@@H]3O[C@H](CN=[N+]=[N-])[C@@H](O)[C@H](O)[C@H]3O)ccc12 [6-N3-Glc MU] | C11-GH1 | mM | 0.05 |
| Cc1cc(=O)oc2cc(O[C@@H]3O[C@H](CO)[C@@H](O)[C@H](O)[C@H]3O)ccc12 [Glc MU] | C11-GH1 | mM | 0.2 |
| Cc1cc(=O)oc2cc(O[C@@H]3O[C@H](CO)[C@H](O)[C@H](O)[C@H]3O)ccc12 [Gal MU] | C11-GH1 | mM | 0.05 |

According to the records, this compound Cc1cc(=O)oc2cc(O[C@@H]3O[C@H](CN=[N+]=[N-])[C@H](O)[C@H](O)[C@H]3O)ccc12 [6-N3-Gal MU] displays Km of 0.1
